All figures here come from patent US6169091A.

Tested on: HB4a erbB-2 cells
Experiment: cell proliferation assay, HB4a cells transformed by over-expression of c-erbB-2
Type: cell-based
Settings: Homo sapiens, 96 h, low serum, 4 days at 37° C., methylene blue, 0.5% DMSO
Counter-ions that a name gives are not always drawn.
Each record is given T if its reported IC50 is strictly below 10000 nM. Records at or above 10000 nM are given F.

Task: I'd appreciate it if you could check whether `Cn1ccnc1-c1cc2c(Nc3ccc(OCc4ccccc4)cc3)ncnc2cn1` has IC50 smaller than 10000 nM.
Result: F

Task: I'd appreciate it if you could check whether `CN(C)c1cc2c(Nc3ccc(OCC4OCCO4)cc3)ncnc2cn1` has IC50 smaller than 10000 nM.
Result: T

Task: I'd appreciate it if you could check whether `Cn1nccc1-c1cc2c(Nc3ccc(OCc4ccccc4)cc3)ncnc2cn1` has IC50 smaller than 10000 nM.
Result: T

Task: I'd appreciate it if you could check whether `CN(C)c1cc2c(Nc3ccc(S(=O)(=O)c4ccccc4)cc3)ncnc2cn1` has IC50 smaller than 10000 nM.
Result: T

Task: I'd appreciate it if you could check whether `CN(C)c1cc2c(Nc3ccc(OCc4ccccc4)cc3)ncnc2cn1` has IC50 smaller than 10000 nM.
Result: T

Task: I'd appreciate it if you could check whether Clc1cc(Nc2ncnc3ccsc23)ccc1OCc1ccccc1Br [Example 26, hydrochloride] has IC50 smaller than 10000 nM.
Result: T

----------
Test system: HB4a erbB-2 cells
Test: cell proliferation assay, HB4a cells transformed by over-expression of c-erbB-2
Assay type: cell-based
Settings: Homo sapiens, 96 h, low serum, 4 days at 37° C., methylene blue, 0.5% DMSO
Where a name gives a salt, the structure may show the parent alone.
Listing: IC50 of selected compounds
The figure you give is taken to be in µM; do not add the unit.

// worked examples, IC50 included
1) c1ccc(COc2ccc(Nc3ncnc4cnc(-c5ccco5)cc34)cc2)cc1	0.5
2) c1ccc(Oc2ccc(Nc3ncnc4ccsc34)cc2)cc1 [Example 29, hydrochloride]	5
3) CN(C)CCN(C)c1cc2c(Nc3ccc(S(=O)(=O)c4ccccc4)cc3)ncnc2cn1	4.4

Task: Observed IC50 on HB4a erbB-2 cells for `CN1CCN(c2cc3c(Nc4ccc(S(=O)(=O)c5ccccc5)cc4)ncnc3cn2)CC1` , please.
Result: 2.4

----------
Target: c-erbB-2 (Homo sapiens)
Construct: recombinant construct of the intracellular domain of c-erbB-2 that is constitutively active
Sequence (P04626 676-1255 limits assumed): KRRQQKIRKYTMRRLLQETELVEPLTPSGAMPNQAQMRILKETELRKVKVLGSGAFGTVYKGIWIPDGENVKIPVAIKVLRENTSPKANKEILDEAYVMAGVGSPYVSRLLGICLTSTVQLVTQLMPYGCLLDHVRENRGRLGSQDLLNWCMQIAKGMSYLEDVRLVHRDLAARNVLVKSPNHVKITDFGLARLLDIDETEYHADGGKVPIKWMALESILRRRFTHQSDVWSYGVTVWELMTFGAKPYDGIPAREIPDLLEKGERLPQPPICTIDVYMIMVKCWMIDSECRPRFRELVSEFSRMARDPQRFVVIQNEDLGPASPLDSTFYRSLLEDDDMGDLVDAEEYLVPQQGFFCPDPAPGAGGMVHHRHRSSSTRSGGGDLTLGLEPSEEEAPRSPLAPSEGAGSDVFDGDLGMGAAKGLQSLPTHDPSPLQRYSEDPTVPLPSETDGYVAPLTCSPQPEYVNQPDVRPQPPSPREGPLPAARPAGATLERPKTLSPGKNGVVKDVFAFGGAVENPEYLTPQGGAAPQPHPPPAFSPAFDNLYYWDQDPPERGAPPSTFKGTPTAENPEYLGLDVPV
Experiment: c-erbB-2 substrate phosphorylation assay (33P-labelled γ-phosphate from ATP onto PolyGluAlaTyr)
Settings: 1 hour, room temperature, 100 μM ATP, 10 mM MnCl2, pH 7.4, 2% DMSO; recombinant intracellular domain of c-erbB-2
Structures can show the parent of a compound that is named as a salt.
Readout: log10 of IC50 (log10 of the value in nM)
// stored as log10 of IC50 expressed in nM

// worked examples, log10 of IC50 included
1) c1ccc(Cc2ccc(Nc3ncnc4ccsc34)cc2)cc1 [Example 28, hydrochloride]	2.30
2) COc1ccccc1COc1ccc(Nc2ncnc3ccsc23)cc1Cl [Example 24, hydrochloride]	1.70
3) c1ccc(Oc2ccc(Nc3ncnc4scc(-c5cccs5)c34)cc2)cc1 [Example 38, hydrochloride]	2.69
4) Cn1cncc1-c1cc2c(Nc3ccc(OCc4ccccc4)cc3)ncnc2cn1 [Example 2]	1.41
5) Fc1ccccc1COc1ccc(Nc2ncnc3ccsc23)cc1Cl [Example 25, hydrochloride]	2.18
6) CN(C)c1cc2c(Nc3ccc(S(=O)(=O)c4ccccc4)cc3)ncnc2cn1 [Example 15]	1.48
7) c1ccc(COc2ccc(Nc3ncnc4cnc(-c5ccco5)cc34)cc2)cc1 [Example 5]	1.15
8) Clc1cc(Nc2ncnc3ccsc23)ccc1OCc1ccccc1Br [Example 26, hydrochloride]	2.36
9) Cc1csc2ncnc(Nc3ccc(OCc4ccccc4F)c(Cl)c3)c12 [Example 35, hydrochloride]	2.00
10) Cn1ccnc1-c1cc2c(Nc3ccc(OCc4ccccc4)cc3)ncnc2cn1 [Example 3]	2.06

Task: Observed log10 of IC50 on c-erbB-2 (Homo sapiens) for Cn1nccc1-c1cc2c(Nc3ccc(OCc4ccccc4)cc3)ncnc2cn1 [Example 4] , please.
Result: 2.09

Task: Observed log10 of IC50 on c-erbB-2 (Homo sapiens) for CN1CCN(c2cc3c(Nc4ccc(S(=O)(=O)c5ccccc5)cc4)ncnc3cn2)CC1 [Example 16] , please.
Result: 1.70

Task: Observed log10 of IC50 on c-erbB-2 (Homo sapiens) for c1ccc(COc2ccc(Nc3ncnc4ccsc34)cc2)cc1 [Example 23, hydrochloride] , please.
Result: 2.48

Task: Observed log10 of IC50 on c-erbB-2 (Homo sapiens) for CN(C)CCN(C)c1cc2c(Nc3ccc(S(=O)(=O)c4ccccc4)cc3)ncnc2cn1 [Example 17] , please.
Result: 2.30

Task: Observed log10 of IC50 on c-erbB-2 (Homo sapiens) for CN(C)c1cc2c(Nc3ccc(OCC4OCCO4)cc3)ncnc2cn1 [Example 20] , please.
Result: 1.00

Task: Observed log10 of IC50 on c-erbB-2 (Homo sapiens) for CN(C)c1cc2c(Nc3ccc(Oc4ccccc4)cc3)ncnc2cn1 [Example 12] , please.
Result: 1.38

Task: Observed log10 of IC50 on c-erbB-2 (Homo sapiens) for c1ccc(Oc2ccc(Nc3ncnc4ccsc34)cc2)cc1 [Example 29, hydrochloride] , please.
Result: 2.04

Task: Observed log10 of IC50 on c-erbB-2 (Homo sapiens) for CN(CCO)c1cc2c(Nc3ccc(S(=O)(=O)c4ccccc4)cc3)ncnc2cn1 [Example 18] , please.
Result: 0.70

----------
Listing: IC50 of selected compounds
Target: c-erbB-2 (Homo sapiens)
Construct: recombinant construct of the intracellular domain of c-erbB-2 that is constitutively active
Assay: c-erbB-2 substrate phosphorylation assay (33P-labelled γ-phosphate from ATP onto PolyGluAlaTyr)
Details: 1 hour, room temperature, 100 μM ATP, 10 mM MnCl2, pH 7.4, 2% DMSO; recombinant intracellular domain of c-erbB-2
Counter-ions that a name gives are not always drawn.
The figure you give is taken to be in nM; do not add the unit.

// worked examples, IC50 included
1. O=S(=O)(c1ccccc1)c1ccc(Nc2ncnc3cnc(Cl)cc23)cc1 [Example 14]	900
2. CN1CCN(c2cc3c(Nc4ccc(OCc5ccccc5)cc4)ncnc3cn2)CC1 [Example 8]	20
3. FC(F)(Oc1ccc(Nc2ncnc3ccsc23)cc1)c1ccccc1 [Example 30, hydrochloride]	860

Now for the compound whose IC50 we want.
Task: Look up IC50 for this compound: Cc1csc2ncnc(Nc3ccc(Oc4ccccc4)cc3)c12 [Example 37, hydrochloride]
Result: 650

----------
Listing: pIC50 of selected molecules
Test system: HB4a erbB-2 cells
Test: cell proliferation assay, HB4a cells transformed by over-expression of c-erbB-2
Assay type: cell-based
Conditions: Homo sapiens, 96 h, low serum, 4 days at 37° C., methylene blue, 0.5% DMSO
Description: Compounds of the present invention were tested for protein tyrosine kinase inhibitory activity in a substrate phosphorylation assay and a cell proliferation assay. […] The specificity of the effect of the test compounds on tyrosine kinase dependent growth over general toxicity is assessed by comparison to an HB4a cell line which has been transfected with ras. […]
Counter-ions that a name gives are not always drawn.
In textbook form, pIC50 equals minus log to base ten of the concentration in mol/L.

// worked examples, pIC50 included
1. COc1ccccc1COc1ccc(Nc2ncnc3ccsc23)cc1Cl [Example 24, hydrochloride]	5.00
2. Cc1csc2ncnc(Nc3ccc(OCC4CCCCC4)cc3)c12 [Example 36, hydrochloride]	5.00

Now for the molecule whose pIC50 we want.
Task: Look up pIC50 for this molecule: `O=S1(=O)CCN(c2cc3c(Nc4ccc(OCc5ccccc5)cc4)ncnc3cn2)CC1`
Result: 5.00
